TARGET OR SYSTEM: PI3Kα (Homo sapiens, UniProt P42336)
Sequence (P42336 whole entry, one chain of several): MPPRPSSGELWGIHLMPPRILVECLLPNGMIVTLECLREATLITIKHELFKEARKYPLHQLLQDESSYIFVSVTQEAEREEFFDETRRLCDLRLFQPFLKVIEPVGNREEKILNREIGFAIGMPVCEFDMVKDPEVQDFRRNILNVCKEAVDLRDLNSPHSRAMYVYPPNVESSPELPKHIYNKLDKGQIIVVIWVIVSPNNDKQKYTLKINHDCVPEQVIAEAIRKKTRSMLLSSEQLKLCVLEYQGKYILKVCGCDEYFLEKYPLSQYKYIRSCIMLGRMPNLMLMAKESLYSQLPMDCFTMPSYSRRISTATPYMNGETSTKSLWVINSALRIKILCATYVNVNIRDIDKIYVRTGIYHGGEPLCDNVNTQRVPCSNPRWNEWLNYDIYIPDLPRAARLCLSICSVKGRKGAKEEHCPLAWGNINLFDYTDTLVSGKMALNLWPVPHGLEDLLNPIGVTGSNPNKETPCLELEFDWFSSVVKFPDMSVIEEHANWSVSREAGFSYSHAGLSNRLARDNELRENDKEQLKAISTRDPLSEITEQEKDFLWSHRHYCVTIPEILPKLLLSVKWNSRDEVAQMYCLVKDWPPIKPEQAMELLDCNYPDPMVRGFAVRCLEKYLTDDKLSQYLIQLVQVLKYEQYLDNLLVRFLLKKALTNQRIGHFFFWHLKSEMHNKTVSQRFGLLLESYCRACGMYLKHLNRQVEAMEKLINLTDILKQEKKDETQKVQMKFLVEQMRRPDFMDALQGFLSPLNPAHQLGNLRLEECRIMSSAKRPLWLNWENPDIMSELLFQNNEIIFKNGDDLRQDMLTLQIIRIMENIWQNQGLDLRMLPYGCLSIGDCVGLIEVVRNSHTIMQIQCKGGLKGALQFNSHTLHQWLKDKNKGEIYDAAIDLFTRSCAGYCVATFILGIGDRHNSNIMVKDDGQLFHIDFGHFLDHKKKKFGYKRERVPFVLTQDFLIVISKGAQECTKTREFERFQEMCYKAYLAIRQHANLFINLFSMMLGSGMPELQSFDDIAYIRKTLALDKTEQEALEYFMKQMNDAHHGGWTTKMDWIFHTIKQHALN
PROCEDURE DETAILS: PI3K binding assay (lipid kinase reaction, ADP-Glo), PI3K alpha
Type: biochemical
TEST READOUT: Ki (nM)
Write the number in nM without appending the unit.

Prompt: Record request: Ki value, item CC(C)n1ncnc1-c1cn2c(n1)-c1ccc(N3CCC[C@H]3C(N)=O)cc1OCC2 [Compound 375, reference compound]
Response: 0.016

###

Tested on: P-PRAS40 SW48(H1047R)
PROCEDURE DETAILS: Inhibition of P-PRAS40 in SW48 isogenic cells, PI3Kα mutant H1047R
Format: cell-based
CONDITION LABEL: Homo sapiens, SW48, 24 h, read-out: P-PRAS40 SW48(H1047R) EC50 (μM)
TEST READOUT: EC50
In your response, put the unit directly after the numeric value.

Prompt: Please give the measured EC50 for this compound: CC(C)n1ncnc1-c1cn2c(n1)-c1ccc(N3CCC[C@H]3C(N)=O)cc1OCC2 [Compound 375, reference compound]
Response: 0.001 µM

###

TARGET OR SYSTEM: PI3Kδ (Homo sapiens, UniProt O00329)
Sequence (O00329 whole entry): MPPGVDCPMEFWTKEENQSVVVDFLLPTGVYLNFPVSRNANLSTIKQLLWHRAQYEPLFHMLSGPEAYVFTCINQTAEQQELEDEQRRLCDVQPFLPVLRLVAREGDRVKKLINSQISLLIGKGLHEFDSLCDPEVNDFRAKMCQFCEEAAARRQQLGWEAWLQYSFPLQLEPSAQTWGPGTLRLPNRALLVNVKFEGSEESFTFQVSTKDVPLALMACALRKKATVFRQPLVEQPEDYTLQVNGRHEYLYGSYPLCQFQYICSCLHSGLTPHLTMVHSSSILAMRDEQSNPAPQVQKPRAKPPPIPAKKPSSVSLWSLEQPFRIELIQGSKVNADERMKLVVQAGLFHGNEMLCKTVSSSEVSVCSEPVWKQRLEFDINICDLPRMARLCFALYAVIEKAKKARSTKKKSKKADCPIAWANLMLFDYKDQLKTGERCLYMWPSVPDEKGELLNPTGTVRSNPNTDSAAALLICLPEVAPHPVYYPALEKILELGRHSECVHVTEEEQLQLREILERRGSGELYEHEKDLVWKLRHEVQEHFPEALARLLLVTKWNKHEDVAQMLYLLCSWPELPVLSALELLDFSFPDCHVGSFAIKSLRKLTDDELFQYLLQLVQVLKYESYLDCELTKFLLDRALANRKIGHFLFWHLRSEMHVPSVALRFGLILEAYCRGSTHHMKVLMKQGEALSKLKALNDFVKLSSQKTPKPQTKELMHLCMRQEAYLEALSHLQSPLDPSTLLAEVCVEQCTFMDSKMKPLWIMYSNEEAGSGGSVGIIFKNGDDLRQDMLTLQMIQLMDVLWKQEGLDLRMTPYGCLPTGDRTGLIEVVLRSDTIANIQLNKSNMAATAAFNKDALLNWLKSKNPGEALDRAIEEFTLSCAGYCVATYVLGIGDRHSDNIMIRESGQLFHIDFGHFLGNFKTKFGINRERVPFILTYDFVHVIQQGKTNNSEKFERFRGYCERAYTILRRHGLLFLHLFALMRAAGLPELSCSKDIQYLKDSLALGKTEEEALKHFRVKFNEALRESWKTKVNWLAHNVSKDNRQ
Sequence (P27986 whole entry partner): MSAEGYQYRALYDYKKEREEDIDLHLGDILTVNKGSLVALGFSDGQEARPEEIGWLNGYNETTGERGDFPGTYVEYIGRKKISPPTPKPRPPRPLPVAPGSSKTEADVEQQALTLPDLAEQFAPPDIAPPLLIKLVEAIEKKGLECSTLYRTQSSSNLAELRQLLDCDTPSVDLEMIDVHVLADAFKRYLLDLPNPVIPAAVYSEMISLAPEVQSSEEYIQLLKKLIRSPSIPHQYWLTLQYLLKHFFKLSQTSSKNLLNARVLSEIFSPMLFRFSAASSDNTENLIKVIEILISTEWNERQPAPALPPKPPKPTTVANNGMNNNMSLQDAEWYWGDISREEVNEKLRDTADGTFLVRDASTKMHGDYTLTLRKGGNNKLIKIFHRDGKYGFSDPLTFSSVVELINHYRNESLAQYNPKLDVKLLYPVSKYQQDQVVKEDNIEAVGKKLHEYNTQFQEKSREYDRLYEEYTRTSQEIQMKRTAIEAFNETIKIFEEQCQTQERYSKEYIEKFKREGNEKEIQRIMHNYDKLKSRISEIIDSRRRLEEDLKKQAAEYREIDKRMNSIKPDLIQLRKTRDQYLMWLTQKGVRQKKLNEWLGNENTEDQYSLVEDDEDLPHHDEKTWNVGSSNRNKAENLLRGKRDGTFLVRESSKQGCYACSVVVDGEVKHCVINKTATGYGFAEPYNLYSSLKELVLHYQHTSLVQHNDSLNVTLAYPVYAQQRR
PROCEDURE DETAILS: PI3K binding assay (lipid kinase reaction, ADP-Glo), PI3K delta
Type: biochemical
CONDITION LABEL: Table 2A; first value of cell (ADP-Glo, Example 901)
Method: Reactions are carried out using the following conditions for each PI3K isoform as in Table 5. All reactions are carried out at room temperature. […] The reaction is started by the addition of 2 μL ATP/MgCl2. […] Plates are read in a Perkin Elmer Envision system using luminescence mode. […] Ki values for each compound are determined using the Morrison Equation.
TEST READOUT: log10 Ki (log10 of the value in nM)
Parameter value (number): base-10 log of Ki in nM.

Prompt: Please give the measured log10 Ki for this compound: CC(C)[C@@H]1COC(=O)N1c1cn2c(n1)-c1ccc(O[C@@H](C)C(N)=O)cc1OCC2 [Compound 101]
Response: 1.27

Prompt: Any idea what log10 Ki was measured for NC(=O)[C@@H]1CCCN1c1ccc2c(c1)OCCn1cc(N3C(=O)OC[C@H]3C(F)F)nc1-2 [Compound 106] ?
Response: 0.26

Prompt: I have this compound here, CC[C@@H]1COC(=O)N1c1cn2c(n1)-c1ccc(O[C@@H](C)C(N)=O)cc1OCC2 [Compound 104] , and I need its recorded log10 Ki.
Response: 1.70

Prompt: What measured log10 Ki goes with NC(=O)[C@@H]1CCCN1c1ccc2c(c1)OCCn1cc(N3C(=O)OC[C@H]3CF)nc1-2 [Compound 108] ?
Response: 0.29

Prompt: What does the record list as log10 Ki for C[C@H](Oc1ccc2c(c1)OCCn1cc(N3C(=O)OC[C@H]3C(F)F)nc1-2)C(N)=O [Compound 107] ?
Response: 1.65

Prompt: Quick check: log10 Ki of C[C@@H]1COC(=O)N1c1cn2c(n1)-c1ccc(N3CCC[C@H]3C(N)=O)cc1OCC2 [Compound 102] ?
Response: 1.12

Prompt: Query (compound): C[C@H](Oc1ccc2c(c1)OCCn1cc(N3C(=O)OC[C@H]3C(F)(F)F)nc1-2)C(N)=O [Compound 105] ; field requested: log10 Ki
Response: 1.63

Prompt: Tell me the measured log10 Ki of C[C@H](Oc1ccc2c(c1)OCCn1cc(N3C(=O)OC[C@H]3CF)nc1-2)C(N)=O [Compound 109] , please.
Response: 1.48

Prompt: Name the reported log10 Ki value associated with the compound NC(=O)[C@@H]1CCCN1c1ccc2c(c1)OCCn1cc(N3C(=O)OC[C@H]3C(F)(F)F)nc1-2 [Compound 103]
Response: 0.36

###

TARGET OR SYSTEM: PI3Kβ (Homo sapiens, UniProt P42338)
Sequence (P42338 whole entry): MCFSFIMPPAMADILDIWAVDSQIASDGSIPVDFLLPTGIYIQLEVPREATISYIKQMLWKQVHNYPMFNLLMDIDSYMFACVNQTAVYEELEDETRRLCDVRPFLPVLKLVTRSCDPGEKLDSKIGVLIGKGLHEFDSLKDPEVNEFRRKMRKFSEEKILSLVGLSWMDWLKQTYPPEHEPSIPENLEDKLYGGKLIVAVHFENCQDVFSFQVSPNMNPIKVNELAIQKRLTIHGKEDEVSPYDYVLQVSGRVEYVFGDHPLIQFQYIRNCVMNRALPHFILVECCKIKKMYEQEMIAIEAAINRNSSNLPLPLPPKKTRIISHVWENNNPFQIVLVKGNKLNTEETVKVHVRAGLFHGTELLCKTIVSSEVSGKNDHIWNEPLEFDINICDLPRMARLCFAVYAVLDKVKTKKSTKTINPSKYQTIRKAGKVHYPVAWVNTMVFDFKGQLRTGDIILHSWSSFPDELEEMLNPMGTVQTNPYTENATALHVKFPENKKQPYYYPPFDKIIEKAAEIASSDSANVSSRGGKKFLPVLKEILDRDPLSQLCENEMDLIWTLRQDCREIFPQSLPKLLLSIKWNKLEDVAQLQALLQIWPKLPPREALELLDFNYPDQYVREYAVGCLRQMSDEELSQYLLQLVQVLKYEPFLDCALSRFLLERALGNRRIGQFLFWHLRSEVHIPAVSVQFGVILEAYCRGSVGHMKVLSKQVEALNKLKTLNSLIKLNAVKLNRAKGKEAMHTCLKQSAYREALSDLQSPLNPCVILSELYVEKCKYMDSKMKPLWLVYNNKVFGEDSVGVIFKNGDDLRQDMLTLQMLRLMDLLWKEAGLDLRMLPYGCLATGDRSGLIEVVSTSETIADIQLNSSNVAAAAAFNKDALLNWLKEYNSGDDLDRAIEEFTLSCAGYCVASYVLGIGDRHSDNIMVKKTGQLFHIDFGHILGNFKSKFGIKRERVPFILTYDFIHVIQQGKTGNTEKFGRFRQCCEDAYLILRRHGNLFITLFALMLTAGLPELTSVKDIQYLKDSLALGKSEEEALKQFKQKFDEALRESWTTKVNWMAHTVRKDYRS
Sequence (P27986 whole entry partner): as the sequence (P27986 whole entry partner) above
PROCEDURE DETAILS: PI3K binding assay (lipid kinase reaction, ADP-Glo), PI3K beta
Assay type: biochemical
CONDITION LABEL: Table 2A; first value of cell (ADP-Glo, Example 901)
TEST READOUT: Ki (nM)
Reply with just the number (in nM).

Prompt: Find the recorded Ki belonging to `C[C@H](Oc1ccc2c(c1)OCCn1cc(N3C(=O)OC[C@H]3C(F)F)nc1-2)C(N)=O` and report it.
Response: 341

Prompt: Item under review: `CC[C@@H]1COC(=O)N1c1cn2c(n1)-c1ccc(O[C@@H](C)C(N)=O)cc1OCC2` . Reported Ki?
Response: 847

Prompt: Quick one: Ki for `C[C@H](Oc1ccc2c(c1)OCCn1cc(N3C(=O)OC[C@H]3CF)nc1-2)C(N)=O` ?
Response: 376

Prompt: Any idea what Ki was measured for `NC(=O)[C@@H]1CCCN1c1ccc2c(c1)OCCn1cc(N3C(=O)OC[C@H]3C(F)(F)F)nc1-2` ?
Response: 108

Prompt: Given the entry `NC(=O)[C@@H]1CCCN1c1ccc2c(c1)OCCn1cc(N3C(=O)OC[C@H]3C(F)F)nc1-2` , report its measured Ki.
Response: 53.8

Prompt: # lookup: Ki of `CC(C)[C@@H]1COC(=O)N1c1cn2c(n1)-c1ccc(O[C@@H](C)C(N)=O)cc1OCC2`
Response: 392

Prompt: Requested field: Ki. Item: `NC(=O)[C@@H]1CCCN1c1ccc2c(c1)OCCn1cc(N3C(=O)OC[C@H]3CF)nc1-2`
Response: 60.8

Prompt: What value of Ki has been recorded for this entry: `C[C@H](Oc1ccc2c(c1)OCCn1cc(N3C(=O)OC[C@H]3C(F)(F)F)nc1-2)C(N)=O`
Response: 661

Prompt: What value of Ki has been recorded for this entry: Cc1nc(-c2cn3c(n2)-c2ccc(-c4cnn(C(C)(C)C(N)=O)c4)cc2OCC3)n(C(C)C)n1 [taselisib, reference compound]
Response: 53

Prompt: Reported Ki for `C[C@@H]1COC(=O)N1c1cn2c(n1)-c1ccc(N3CCC[C@H]3C(N)=O)cc1OCC2` : what is it?
Response: 418

###

TARGET OR SYSTEM: PI3Kα (Homo sapiens)
PROCEDURE DETAILS: PI3K binding assay (lipid kinase reaction, ADP-Glo), PI3K alpha
Format: biochemical
CONDITION LABEL: Table 2A; first value of cell (ADP-Glo, Example 901); read-out: PI3Kα Ki
Protocol: Reactions are carried out using the following conditions for each PI3K isoform as in Table 5. All reactions are carried out at room temperature. […] The reaction is started by the addition of 2 μL ATP/MgCl2. […] Plates are read in a Perkin Elmer Envision system using luminescence mode. […] Ki values for each compound are determined using the Morrison Equation.
TEST READOUT: pKi
Remember the convention: pKi equals -log10 of concentration in molar.

Prompt: Would you kindly share the measured pKi for `CC[C@@H]1COC(=O)N1c1cn2c(n1)-c1ccc(O[C@@H](C)C(N)=O)cc1OCC2` ?
Response: 8.57

Prompt: Entry under review: `C[C@H](Oc1ccc2c(c1)OCCn1cc(N3C(=O)OC[C@H]3C(F)F)nc1-2)C(N)=O` . Reported pKi?
Response: 9.07

Prompt: Dear colleague, I am looking for the recorded pKi of the following molecule: `NC(=O)[C@@H]1CCCN1c1ccc2c(c1)OCCn1cc(N3C(=O)OC[C@H]3CF)nc1-2`
Response: 10.37

Prompt: Could you share which pKi value was measured for `C[C@H](Oc1ccc2c(c1)OCCn1cc(N3C(=O)OC[C@H]3CF)nc1-2)C(N)=O` ?
Response: 9.00

Prompt: Which pKi reading was recorded for the molecule `CC(C)[C@@H]1COC(=O)N1c1cn2c(n1)-c1ccc(O[C@@H](C)C(N)=O)cc1OCC2` ?
Response: 9.10

###

TARGET OR SYSTEM: PI3Kγ (Homo sapiens, UniProt P48736)
Sequence (P48736 whole entry): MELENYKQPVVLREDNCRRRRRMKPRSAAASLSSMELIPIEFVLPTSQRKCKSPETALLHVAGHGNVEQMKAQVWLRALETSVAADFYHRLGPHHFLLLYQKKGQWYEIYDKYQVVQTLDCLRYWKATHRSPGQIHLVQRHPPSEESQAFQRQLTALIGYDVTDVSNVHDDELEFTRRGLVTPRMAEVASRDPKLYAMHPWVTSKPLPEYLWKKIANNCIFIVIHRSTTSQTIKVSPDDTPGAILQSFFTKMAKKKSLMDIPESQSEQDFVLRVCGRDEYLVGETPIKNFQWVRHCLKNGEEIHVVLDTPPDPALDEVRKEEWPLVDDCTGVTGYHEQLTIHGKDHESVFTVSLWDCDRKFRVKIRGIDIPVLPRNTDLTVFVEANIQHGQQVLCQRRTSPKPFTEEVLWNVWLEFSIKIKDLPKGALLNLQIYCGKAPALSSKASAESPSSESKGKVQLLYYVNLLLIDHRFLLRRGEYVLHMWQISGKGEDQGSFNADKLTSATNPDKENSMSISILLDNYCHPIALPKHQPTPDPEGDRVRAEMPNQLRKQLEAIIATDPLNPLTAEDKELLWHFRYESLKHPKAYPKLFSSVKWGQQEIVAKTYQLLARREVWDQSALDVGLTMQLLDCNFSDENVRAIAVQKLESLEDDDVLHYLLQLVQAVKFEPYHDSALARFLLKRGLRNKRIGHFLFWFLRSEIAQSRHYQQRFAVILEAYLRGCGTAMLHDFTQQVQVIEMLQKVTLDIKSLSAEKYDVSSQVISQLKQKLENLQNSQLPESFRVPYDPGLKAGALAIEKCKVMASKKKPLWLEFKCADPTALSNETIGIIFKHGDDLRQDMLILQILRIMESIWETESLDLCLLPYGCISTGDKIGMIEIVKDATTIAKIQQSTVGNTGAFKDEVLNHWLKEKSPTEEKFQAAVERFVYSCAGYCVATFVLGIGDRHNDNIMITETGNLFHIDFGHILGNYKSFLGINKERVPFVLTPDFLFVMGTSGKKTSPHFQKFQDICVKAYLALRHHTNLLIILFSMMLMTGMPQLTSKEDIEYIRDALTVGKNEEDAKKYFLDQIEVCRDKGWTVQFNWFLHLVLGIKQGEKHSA
PROCEDURE DETAILS: Fluorescence polarization (FP) Ki, methods of Example 901 of U.S. Pat. No. 8,242,104, PI3K gamma
CONDITION LABEL: read-out: PI3Kγ FP Ki; Table 2A; second value of cell after slash (FP)
TEST READOUT: pKi
Kindly note that pKi refers to -log10 of the concentration in mol/L and answer with the value alone.

Prompt: Look up pKi for this molecule: Cc1nc(-c2cn3c(n2)-c2ccc(-c4cnn(C(C)(C)C(N)=O)c4)cc2OCC3)n(C(C)C)n1 [taselisib, reference compound]
Response: 9.01

###

Exercise: state measured Ki for each of the compounds provided.
TARGET OR SYSTEM: PI3Kα (Homo sapiens)
PROCEDURE DETAILS: PI3K binding assay (lipid kinase reaction, ADP-Glo), PI3K alpha
Type: biochemical
CONDITION LABEL: Table 2B comparator compounds; first value of cell (ADP-Glo); read-out: PI3Kα Ki
Supply the numeric figure in nM, leaving out any unit text.

Prompt: Quick one: Ki for CC(C)(O)Cn1cc(-c2ccc3c(c2)OCCc2sc(N4C(=O)OCC4(C)C)nc2-3)cn1 [356 (U.S. Pat. No. 8,263,633), reference compound] ?
Response: 0.967

Prompt: I have this compound here, C[C@H](Oc1ccc2c(c1)OCCn1cc(-c3ncnn3CC(F)(F)F)nc1-2)C(N)=O [Compound 486, reference compound] , and I need its recorded Ki.
Response: 0.186

Prompt: Reported Ki, compound NC(=O)[C@@H]1CCCN1c1ccc2c(c1)OCCn1cc(-c3ncnn3CC(F)(F)F)nc1-2 [Compound 469, reference compound] : ____
Response: 0.025
